Test system: MS2 coat protein
experiment: apparent KD of MS2 coat protein; designed switch direction (-1 OFF switch, 1 ON switch): 1; higher = weaker reporter binding
conditions: input ligand: FMN 200 uM
I'd be grateful if you could share measured apparent KD of MS2 coat protein for these entries.
Give the value, in units of nM, as a plain number.

Task item: Using the record for GUGGAGAAUUAAGGAUAUCGAGUCAAGAUGUUAAACAUGAGGAUCACCCAUGUGGGUUGCGGUAUCGAGAAGGUAAUUUACGGG [salish99_SSNG2_r04_505] (Eterna round: R96, puzzle: Same State NG 2) , report its apparent KD of MS2 coat protein.
Reply: 22.4

Task item: Using the record for CUCCGGAAGCGAGGAUAUGCAGAGGAUCACCCUGCAGAAGGCGCAAAAGCGAGGAUAUGCAGAGGAUCACCCUGCAGAAGGCGC [pwkr ssNG DX.33] (Eterna round: R96, puzzle: Same State NG 1) , report its apparent KD of MS2 coat protein.
Reply: 10.2

Task item: Using the record for UUGAUGAACUGAGGAUAUCGAGUCGUCUGUUUUUACAUGAGGAUCACCCAUGUGGGUUGUGGUAUCGAGAAGGCAGAUUACUUA [JR_SSNG2_Sub031] (Eterna round: R96, puzzle: Same State NG 2) , report its apparent KD of MS2 coat protein.
Reply: 1670

Task item: Using the record for CCAGCUACUCACAUGAGGAUCACCCAUGUCUAGGAUAUAGUAGAGGAUAUUGGCGGAUGGAAGACCGAGAAGGCUACCUCCUGA [Eternabot solution 49] (Eterna round: R96, puzzle: Same State NG 3) , report its apparent KD of MS2 coat protein.
Reply: 17.9

Task item: Using the record for GUAAAACAUGAGGAUCACCCAUGUCAACAAAGUCGAGGAUAUGGGCAAAUAAAAUAAGAACCAGAAGGCGAAUAAG [salish99_SS1_r3_009] (Eterna round: R96, puzzle: Same State 1) , report its apparent KD of MS2 coat protein.
Reply: 45.9
